target: ER alpha (Homo sapiens, UniProt P03372); assay: competition binding assay against a model linear peptide sequence (estrogen receptor-coactivator interaction), ER alpha; conditions: competition binding assay (Lilly Research Labs); read-out: Ki ER α
Sequence (P03372 whole entry): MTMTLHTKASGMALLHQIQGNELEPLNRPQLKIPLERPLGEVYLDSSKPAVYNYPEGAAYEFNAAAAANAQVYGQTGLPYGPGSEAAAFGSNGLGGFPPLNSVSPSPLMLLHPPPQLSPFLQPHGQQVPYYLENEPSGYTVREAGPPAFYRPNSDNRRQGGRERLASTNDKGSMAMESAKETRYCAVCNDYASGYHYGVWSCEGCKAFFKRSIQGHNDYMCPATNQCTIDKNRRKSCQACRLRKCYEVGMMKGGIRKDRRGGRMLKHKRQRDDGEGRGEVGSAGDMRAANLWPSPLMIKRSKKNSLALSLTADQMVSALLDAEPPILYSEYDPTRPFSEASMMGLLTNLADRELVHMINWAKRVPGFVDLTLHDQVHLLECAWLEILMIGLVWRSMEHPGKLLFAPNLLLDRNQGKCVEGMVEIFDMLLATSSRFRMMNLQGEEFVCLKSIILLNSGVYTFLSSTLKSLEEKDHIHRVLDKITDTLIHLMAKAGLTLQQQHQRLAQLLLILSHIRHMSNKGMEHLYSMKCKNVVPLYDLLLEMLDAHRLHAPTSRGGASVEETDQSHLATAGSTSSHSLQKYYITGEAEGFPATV
Positions of bridges follow the written chain, without caps; N, C: chain ends. Non-standard residues stand in square brackets, D forms with d. Residues, ends and D or L forms follow the SMILES beside them. dPen = CC(C)(S)[C@@H](N)C(=O)O; Pen = CC(C)(S)[C@H](N)C(=O)O; hCys = N[C@@H](CCS)C(=O)O; Aib = CC(C)(N)C(=O)O
Assay Metric: pKi
Units for pKi: none; it is -log10 of a concentration expressed in mol/L.

Some compounds with known pKi results, for comparison:
| Compound | pKi |
| --- | --- |
| CC(C)C[C@H](NC(=O)[C@H](CC(C)C)NC(=O)[C@H](CCCNC(=N)N)NC(=O)[C@H]1CSSC[C@@H](NC(=O)[C@@H](N)CCCCN)C(=O)N[C@@H](CC(C)C)C(=O)N1)C(=O)N[C@@H](CCC(N)=O)C(N)=O [AKG-I-64] (H-K[dC]L[dC]RLLQ-NH2; disulfide 2-4) | 5.74 |
| CC[C@H](C)[C@@H]1NC(=O)[C@H](NC(=O)[C@@H](N)CCCNC(=N)N)CSSCC[C@@H](C(=O)N[C@@H](CCCNC(=N)N)C(=O)N[C@@H](CC(C)C)C(=O)N[C@@H](CC(C)C)C(=O)N[C@@H](CCC(N)=O)C(N)=O)NC(=O)[C@H](CC(C)C)NC1=O [AKG-II-3] (H-R[dC]IL[hCys]RLLQ-NH2; disulfide 2-5) | 7.89 |
| CC[C@H](C)[C@@H]1NC(=O)[C@@H](NC(=O)[C@@H](N)CCCCN)CSSC[C@H](C(=O)N[C@@H](CCCNC(=N)N)C(=O)N[C@@H](CC(C)C)C(=O)N[C@@H](CC(C)C)C(=O)N[C@@H](CCC(N)=O)C(N)=O)NC(=O)[C@H](CC(C)C)NC1=O [AKG-I-60] (H-KCIL[dC]RLLQ-NH2; disulfide 2-5) | 5.62 |
| CC[C@H](C)[C@@H]1NC(=O)[C@H](NC(=O)[C@H](CCCCN)NC(C)=O)CSSC[C@@H](C(=O)N[C@@H](CCCNC(=N)N)C(=O)N[C@@H](CC(C)C)C(=O)N[C@@H](CC(C)C)C(=O)N[C@@H](CCC(N)=O)C(N)=O)NC(=O)[C@H](CC(C)C)NC1=O [AML-I-71/2] (Ac-K[dC]ILCRLLQ-NH2; disulfide 2-5) | 6.92 |

Query: pKi; subject: CC[C@H](C)[C@@H]1NC(=O)[C@@H](NC(=O)[C@@H](N)CCCNC(=N)N)CSSC[C@@H](C(=O)N[C@@H](CC(C)C)C(=O)N[C@@H](CC(C)C)C(=O)N[C@@H](CCC(N)=O)C(N)=O)NC(=O)[C@H](CCCNC(=N)N)NC(=O)[C@H](CC(C)C)NC1=O [AKG-II-8] (H-RCILRCLLQ-NH2; disulfide 2-6) 6.76

Now consider CC[C@H](C)[C@@H]1NC(=O)[C@H](CC(C)C)NC(=O)[C@H](NC(=O)[C@@H](N)CCCNC(=N)N)CSSC[C@@H](C(=O)N[C@@H](CCCNC(=N)N)C(=O)N[C@@H](CC(C)C)C(=O)N[C@@H](CC(C)C)C(=O)N[C@@H](CCC(N)=O)C(N)=O)NC1=O [AKG-II-1] (H-R[dC]LICRLLQ-NH2; disulfide 2-5) and answer again. 7.89

Next entry: CC[C@H](C)[C@@H]1NC(=O)[C@H](NC(=O)[C@H](CC(C)C)NC(=O)[C@H](CC(C)C)NC(=O)[C@@H](N)CCCCN)CSSC[C@@H](C(=O)N[C@@H](CCCNC(=N)N)C(=O)N[C@@H](CC(C)C)C(=O)N[C@@H](CC(C)C)C(=O)N[C@@H](CCC(N)=O)C(N)=O)NC(=O)[C@H](CC(C)C)NC1=O [AKG-I-46] (H-KLL[dC]ILCRLLQ-NH2; disulfide 4-7) 6.40

Check CC[C@H](C)[C@@H]1NC(=O)[C@H](NC(=O)[C@@H](N)CCCCN)CSSC[C@H](C(=O)N[C@@H](CCCNC(=N)N)C(=O)N[C@@H](CC(C)C)C(=O)N[C@@H](CC(C)C)C(=O)N[C@@H](CCC(N)=O)C(N)=O)NC(=O)[C@H](CC(C)C)NC1=O [AKG-I-61] (H-K[dC]IL[dC]RLLQ-NH2; disulfide 2-5) too. 6.03

Now consider CC[C@H](C)[C@@H]1NC(=O)[C@H](NC(=O)[C@H](CCCCN)NC(=O)C(C)(C)N)CSSC[C@@H](C(=O)N[C@@H](CCCNC(=N)N)C(=O)N[C@@H](CC(C)C)C(=O)N[C@@H](CC(C)C)C(=O)N[C@@H](CCC(N)=O)C(N)=O)NC(=O)[C@H](CC(C)C)NC1=O [AML-I-83/4] (H-[Aib]K[dC]ILCRLLQ-NH2; disulfide 3-6; N-terminus assumed) and answer again. 6.89

How about this compound: CC[C@H](C)[C@@H]1NC(=O)[C@@H](NC(=O)[C@@H](N)CCCCN)CSC[C@@H](C(=O)N[C@@H](CCCNC(=N)N)C(=O)N[C@@H](CC(C)C)C(=O)N[C@@H](CC(C)C)C(=O)N[C@@H](CCC(N)=O)C(N)=O)NC(=O)[C@H](CC(C)C)NC1=O 5.93

Proceed to CC[C@H](C)[C@@H]1NC(=O)[C@H](CC(C)C)NC(=O)[C@@H](NC(=O)[C@@H](N)CCCCN)CSSC[C@H](C(=O)N[C@@H](CCCNC(=N)N)C(=O)N[C@@H](CC(C)C)C(=O)N[C@@H](CC(C)C)C(=O)N[C@@H](CCC(N)=O)C(N)=O)NC1=O [AKG-I-59] (H-KCLI[dC]RLLQ-NH2; disulfide 2-5) 5.68

// next record CC[C@H](C)[C@@H]1NC(=O)[C@H](NC(=O)[C@@H](N)CCCNC(=N)N)C(C)(C)SSC[C@@H](C(=O)N[C@@H](CCCNC(=N)N)C(=O)N[C@@H](CC(C)C)C(=O)N[C@@H](CC(C)C)C(=O)N[C@@H](CCC(N)=O)C(N)=O)NC(=O)[C@H](CC(C)C)NC1=O [AKG-II-9] (H-R[dPen]ILCRLLQ-NH2; disulfide 2-5) 6.77

Also check CC[C@H](C)[C@H](NC(=O)[C@H](CCCCN)NC(=O)[C@H](Cc1c[nH]cn1)NC(=O)[C@@H](N)CCCCN)C(=O)N[C@@H](CC(C)C)C(=O)N[C@@H](Cc1c[nH]cn1)C(=O)N[C@@H](CCCNC(=N)N)C(=O)N[C@@H](CC(C)C)C(=O)N[C@@H](CC(C)C)C(=O)N[C@@H](CCC(N)=O)C(=O)N[C@@H](CC(=O)O)C(=O)N[C@@H](CO)C(=O)N[C@@H](CO)C(=O)O [AML-I-89/2] (H-KHKILHRLLQDSS-OH) 6.42

How about CC[C@H](C)[C@@H]1NC(=O)[C@H](NC(=O)[C@@H](N)CCCNC(=N)N)CSSC(C)(C)[C@@H](C(=O)N[C@@H](CCCNC(=N)N)C(=O)N[C@@H](CC(C)C)C(=O)N[C@@H](CC(C)C)C(=O)N[C@@H](CCC(N)=O)C(N)=O)NC(=O)[C@H](CC(C)C)NC1=O [AKG-II-10] (H-R[dC]IL[Pen]RLLQ-NH2; disulfide 2-5) ? 7.06
